B1: library; a variant is named by its letters at N, in order (parent)
chain: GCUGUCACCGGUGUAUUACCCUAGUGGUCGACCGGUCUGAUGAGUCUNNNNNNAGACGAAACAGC

# Variants of: B1
# Assay protocol: normalized RNA/DNA level without ligand (relative to sTRSVctl = 100) (log10 (% of sTRSVctl)); ligand: hypoxanthine (xanthine aptamer); higher = less ribozyme self-cleavage, higher mRNA level
# Settings: HEK293T, reporter: mCherry (pCS4076), ligand present: no
Field: normalized RNA/DNA level without ligand (log10). Provide a value for each of the variants that follow.
Answer field: number only, no words.

**Query** Give its normalized RNA/DNA level without ligand (log10) value. Item: GCUGUCACCGGUGUAUUACCCUAGUGGUCGACCGGUCUGAUGAGUCUAAAGCGAGACGAAACAGC [AAAGCG]
**Result** 1.32

**Query** Request the reported normalized RNA/DNA level without ligand (log10) associated with GCUGUCACCGGUGUAUUACCCUAGUGGUCGACCGGUCUGAUGAGUCUCAACUAAGACGAAACAGC [CAACUA]
**Result** 1.71

**Query** For the variant shown here, GCUGUCACCGGUGUAUUACCCUAGUGGUCGACCGGUCUGAUGAGUCUGGUGAAAGACGAAACAGC [GGUGAA] , give the reported normalized RNA/DNA level without ligand (log10).
**Result** 1.65

**Query** I'd like to know its normalized RNA/DNA level without ligand (log10). The variant in question is GCUGUCACCGGUGUAUUACCCUAGUGGUCGACCGGUCUGAUGAGUCUCCAUCCAGACGAAACAGC [CCAUCC]
**Result** 1.97

**Query** // normalized RNA/DNA level without ligand (log10) lookup, key: GCUGUCACCGGUGUAUUACCCUAGUGGUCGACCGGUCUGAUGAGUCUUUACAUAGACGAAACAGC [UUACAU]
**Result** 1.87

**Query** Name the recorded normalized RNA/DNA level without ligand (log10) for GCUGUCACCGGUGUAUUACCCUAGUGGUCGACCGGUCUGAUGAGUCUAAUGGCAGACGAAACAGC [AAUGGC] .
**Result** 1.79

**Query** For GCUGUCACCGGUGUAUUACCCUAGUGGUCGACCGGUCUGAUGAGUCUAUAGGUAGACGAAACAGC [AUAGGU] , what is its reported normalized RNA/DNA level without ligand (log10)?
**Result** 1.59

**Query** Name the reported normalized RNA/DNA level without ligand (log10) value associated with the variant GCUGUCACCGGUGUAUUACCCUAGUGGUCGACCGGUCUGAUGAGUCUUUCCUUAGACGAAACAGC [UUCCUU]
**Result** 1.89

**Query** # normalized RNA/DNA level without ligand (log10) lookup, item GCUGUCACCGGUGUAUUACCCUAGUGGUCGACCGGUCUGAUGAGUCUGCAACGAGACGAAACAGC [GCAACG]
**Result** 1.59

**Query** // returns reported normalized RNA/DNA level without ligand (log10) for input GCUGUCACCGGUGUAUUACCCUAGUGGUCGACCGGUCUGAUGAGUCUUUCAUGAGACGAAACAGC [UUCAUG]
**Result** 1.78

**Query** Given the entry GCUGUCACCGGUGUAUUACCCUAGUGGUCGACCGGUCUGAUGAGUCUACGGUGAGACGAAACAGC [ACGGUG] , report its measured normalized RNA/DNA level without ligand (log10).
**Result** 1.24

**Query** Suppose we examine the variant GCUGUCACCGGUGUAUUACCCUAGUGGUCGACCGGUCUGAUGAGUCUGGGCGUAGACGAAACAGC [GGGCGU] ; what normalized RNA/DNA level without ligand (log10) value has been reported?
**Result** 1.96

**Query** Name the recorded normalized RNA/DNA level without ligand (log10) for GCUGUCACCGGUGUAUUACCCUAGUGGUCGACCGGUCUGAUGAGUCUCGAUGUAGACGAAACAGC [CGAUGU] .
**Result** 1.88

**Query** Would you kindly share the measured normalized RNA/DNA level without ligand (log10) for GCUGUCACCGGUGUAUUACCCUAGUGGUCGACCGGUCUGAUGAGUCUUACGCAAGACGAAACAGC [UACGCA] ?
**Result** 1.82

**Query** So what does the record say about normalized RNA/DNA level without ligand (log10) for GCUGUCACCGGUGUAUUACCCUAGUGGUCGACCGGUCUGAUGAGUCUAAUAUAAGACGAAACAGC [AAUAUA] ?
**Result** 1.78

**Query** Name the reported normalized RNA/DNA level without ligand (log10) value associated with the variant GCUGUCACCGGUGUAUUACCCUAGUGGUCGACCGGUCUGAUGAGUCUAACGGGAGACGAAACAGC [AACGGG]
**Result** 1.38

**Query** If you can, please state the reported normalized RNA/DNA level without ligand (log10) value of GCUGUCACCGGUGUAUUACCCUAGUGGUCGACCGGUCUGAUGAGUCUAUUCCAAGACGAAACAGC [AUUCCA] .
**Result** 1.86

**Query** Look up normalized RNA/DNA level without ligand (log10): GCUGUCACCGGUGUAUUACCCUAGUGGUCGACCGGUCUGAUGAGUCUGGACCCAGACGAAACAGC [GGACCC]
**Result** 1.93

**Query** Quick check: normalized RNA/DNA level without ligand (log10) of GCUGUCACCGGUGUAUUACCCUAGUGGUCGACCGGUCUGAUGAGUCUCACAGAAGACGAAACAGC [CACAGA] ?
**Result** 1.85

**Query** What value of measured normalized RNA/DNA level without ligand (log10) is listed for GCUGUCACCGGUGUAUUACCCUAGUGGUCGACCGGUCUGAUGAGUCUGGUAGUAGACGAAACAGC [GGUAGU] ?
**Result** 1.75

**Query** I have this variant here, GCUGUCACCGGUGUAUUACCCUAGUGGUCGACCGGUCUGAUGAGUCUCUUCGCAGACGAAACAGC [CUUCGC] , and I need its recorded normalized RNA/DNA level without ligand (log10).
**Result** 1.88

**Query** Any idea what normalized RNA/DNA level without ligand (log10) was measured for GCUGUCACCGGUGUAUUACCCUAGUGGUCGACCGGUCUGAUGAGUCUUUAAAGAGACGAAACAGC [UUAAAG] ?
**Result** 1.69

**Query** Return reported normalized RNA/DNA level without ligand (log10); argument: GCUGUCACCGGUGUAUUACCCUAGUGGUCGACCGGUCUGAUGAGUCUUCCUGCAGACGAAACAGC [UCCUGC]
**Result** 1.92

**Query** Can you look up the measured normalized RNA/DNA level without ligand (log10) of GCUGUCACCGGUGUAUUACCCUAGUGGUCGACCGGUCUGAUGAGUCUGAGGGCAGACGAAACAGC [GAGGGC] for me?
**Result** 1.5

**Query** Recorded normalized RNA/DNA level without ligand (log10) of GCUGUCACCGGUGUAUUACCCUAGUGGUCGACCGGUCUGAUGAGUCUCGAAACAGACGAAACAGC [CGAAAC] , please.
**Result** 1.73

**Query** Consider the variant shown here: GCUGUCACCGGUGUAUUACCCUAGUGGUCGACCGGUCUGAUGAGUCUAUCUUUAGACGAAACAGC [AUCUUU] What is its recorded normalized RNA/DNA level without ligand (log10)?
**Result** 1.91

**Query** Need normalized RNA/DNA level without ligand (log10), item GCUGUCACCGGUGUAUUACCCUAGUGGUCGACCGGUCUGAUGAGUCUAUUAUGAGACGAAACAGC [AUUAUG]
**Result** 1.48

**Query** For the variant shown here, GCUGUCACCGGUGUAUUACCCUAGUGGUCGACCGGUCUGAUGAGUCUAAUGACAGACGAAACAGC [AAUGAC] , give the reported normalized RNA/DNA level without ligand (log10).
**Result** 1.83

**Query** normalized RNA/DNA level without ligand (log10) for GCUGUCACCGGUGUAUUACCCUAGUGGUCGACCGGUCUGAUGAGUCUAGUGCUAGACGAAACAGC [AGUGCU] ?
**Result** 1.85

**Query** Which normalized RNA/DNA level without ligand (log10) value belongs to GCUGUCACCGGUGUAUUACCCUAGUGGUCGACCGGUCUGAUGAGUCUGGAUCAAGACGAAACAGC [GGAUCA] ?
**Result** 1.84

**Query** Record request: normalized RNA/DNA level without ligand (log10) value, item GCUGUCACCGGUGUAUUACCCUAGUGGUCGACCGGUCUGAUGAGUCUGGAGAAAGACGAAACAGC [GGAGAA]
**Result** 1.68

**Query** Recorded normalized RNA/DNA level without ligand (log10) for GCUGUCACCGGUGUAUUACCCUAGUGGUCGACCGGUCUGAUGAGUCUCACCCAAGACGAAACAGC [CACCCA] , please?
**Result** 1.83

**Query** What does the data say about its normalized RNA/DNA level without ligand (log10)? Entry: GCUGUCACCGGUGUAUUACCCUAGUGGUCGACCGGUCUGAUGAGUCUUCACCCAGACGAAACAGC [UCACCC]
**Result** 1.89

**Query** Param item = GCUGUCACCGGUGUAUUACCCUAGUGGUCGACCGGUCUGAUGAGUCUGUUUACAGACGAAACAGC [GUUUAC] ; retrieve measured normalized RNA/DNA level without ligand (log10).
**Result** 1.88

**Query** Consider the variant GCUGUCACCGGUGUAUUACCCUAGUGGUCGACCGGUCUGAUGAGUCUGGCCCAAGACGAAACAGC [GGCCCA] and give its measured normalized RNA/DNA level without ligand (log10).
**Result** 1.97

**Query** Recorded normalized RNA/DNA level without ligand (log10) of GCUGUCACCGGUGUAUUACCCUAGUGGUCGACCGGUCUGAUGAGUCUUGCUGUAGACGAAACAGC [UGCUGU] , please.
**Result** 1.92

**Query** Query (variant): GCUGUCACCGGUGUAUUACCCUAGUGGUCGACCGGUCUGAUGAGUCUCGUGCGAGACGAAACAGC [CGUGCG] ; field requested: normalized RNA/DNA level without ligand (log10)
**Result** 1.9

**Query** Data request, read-out normalized RNA/DNA level without ligand (log10), for GCUGUCACCGGUGUAUUACCCUAGUGGUCGACCGGUCUGAUGAGUCUUGAGAGAGACGAAACAGC [UGAGAG]
**Result** 1.67

**Query** Sample GCUGUCACCGGUGUAUUACCCUAGUGGUCGACCGGUCUGAUGAGUCUCCUUGCAGACGAAACAGC [CCUUGC] — what was its normalized RNA/DNA level without ligand (log10)?
**Result** 1.86

**Query** Query (variant): GCUGUCACCGGUGUAUUACCCUAGUGGUCGACCGGUCUGAUGAGUCUGCCACCAGACGAAACAGC [GCCACC] ; field requested: normalized RNA/DNA level without ligand (log10)
**Result** 1.83

**Query** What measured normalized RNA/DNA level without ligand (log10) goes with GCUGUCACCGGUGUAUUACCCUAGUGGUCGACCGGUCUGAUGAGUCUUUCUUUAGACGAAACAGC [UUCUUU] ?
**Result** 1.98

**Query** Could you tell me which normalized RNA/DNA level without ligand (log10) is on file for GCUGUCACCGGUGUAUUACCCUAGUGGUCGACCGGUCUGAUGAGUCUAUCGGCAGACGAAACAGC [AUCGGC] ?
**Result** 1.86

**Query** I have this variant here, GCUGUCACCGGUGUAUUACCCUAGUGGUCGACCGGUCUGAUGAGUCUGAAGAGAGACGAAACAGC [GAAGAG] , and I need its recorded normalized RNA/DNA level without ligand (log10).
**Result** 1.27

**Query** Form field: reported normalized RNA/DNA level without ligand (log10) of GCUGUCACCGGUGUAUUACCCUAGUGGUCGACCGGUCUGAUGAGUCUUCAGGGAGACGAAACAGC [UCAGGG]
**Result** 1.69

**Query** Which normalized RNA/DNA level without ligand (log10) is listed for GCUGUCACCGGUGUAUUACCCUAGUGGUCGACCGGUCUGAUGAGUCUUGGAUGAGACGAAACAGC [UGGAUG] ?
**Result** 1.66

**Query** Return reported normalized RNA/DNA level without ligand (log10); argument: GCUGUCACCGGUGUAUUACCCUAGUGGUCGACCGGUCUGAUGAGUCUGUAUAAAGACGAAACAGC [GUAUAA]
**Result** 1.78
